- TARGET_SYSTEM: UniProt Q9P1W9
- Sequence (Q9P1W9 whole entry, looked up): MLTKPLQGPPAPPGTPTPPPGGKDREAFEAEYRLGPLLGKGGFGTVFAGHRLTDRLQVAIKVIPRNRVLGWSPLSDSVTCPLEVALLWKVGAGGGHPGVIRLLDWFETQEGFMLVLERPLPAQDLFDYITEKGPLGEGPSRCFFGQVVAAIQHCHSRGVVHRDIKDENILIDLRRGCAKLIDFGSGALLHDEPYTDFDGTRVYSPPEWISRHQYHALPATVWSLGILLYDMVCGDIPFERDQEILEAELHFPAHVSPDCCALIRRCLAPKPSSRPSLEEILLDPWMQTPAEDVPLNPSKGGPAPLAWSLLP
- EXPERIMENT_DESCRIPTION: radiometric filter-binding kinase assay
- TEST_PARAMETERS: compound 1.0 µM
PARAMETER_MEASURED: residual activity (%)
Numbers only, in %.

// worked examples, residual activity included
| COMPOUND | TARGET_SYSTEM | RESULT_UNITS | REPORTED_RESULT |
| --- | --- | --- | --- |
| NC(=O)Nc1ccc2c(c1)/C(=C/c1cc(-c3cccnc3)c[nH]1)C(=O)N2 | UniProt Q9P1W9 | % | 34 |
| CN(C)C/C=C/C(=O)Nc1cccc(C(=O)Nc2ccc(Nc3nccc(-c4cccnc4)n3)cc2)c1 | UniProt Q9P1W9 | % | 102 |
| c1ccc2c(-c3cnn4cc(-c5ccc(N6CCNCC6)cc5)cnc34)ccnc2c1 | UniProt Q9P1W9 | % | 104 |
| NC1(c2ccc(-c3nc4ccn5c(=O)[nH]nc5c4cc3-c3ccccc3)cc2)CCC1 | UniProt Q9P1W9 | % | 105 |
| O=C1NC(=S)N[C@@H]1Cc1c[nH]c2ccccc12 | UniProt Q9P1W9 | % | 97 |

Please go through the list and note residual activity for each compound.
1. COc1ccc(-n2ncc3cnc(Nc4cc(OC)c(OC)c(OCCCN5CCN(C)CC5)c4)nc32)cc1
2. Cc1cccc(Nc2nn(C)c3ncnc(N)c23)c1

1. 106
2. 115

Please go through the list and note residual activity for each compound.
1. CC(C)(C#N)c1ccc(N2C(=O)OCc3cnc4ccc(-c5cnc6ccccc6c5)cc4c32)cc1
2. Nc1cccc2c1CN(C1CCC(=O)NC1=O)C2=O (stereo unspecified)
3. O=C(O)c1ccc(-c2c[nH]c3ncc(-c4ccccc4)cc23)cc1C1CCCC1
4. COc1ccc2c(c1)c1c3c(c4c5ccccc5n(C)c4c1n2CC(O)CN(C)C)C(=O)NC3=O (stereo unspecified)
5. Oc1ccc2ccccc2c1SSc1c(O)ccc2ccccc12
6. Cc1ccc(=O)n(-c2ccccc2)c1
7. FC(F)(F)c1ccc(-c2ccc(Oc3cncc4sc(-c5nn[nH]n5)cc34)cc2)cc1

[91, 98, 92, 6, 65, 118, 87]

Please go through the list and note residual activity for each compound.
1. CN1C(=O)[C@@H](Cc2c[nH]c3ccccc23)NC1=S
2. COc1ccc(N(C(=O)Nc2c(C)cccc2C)c2cc(Nc3ccc(N4CCN(C)CC4)cc3)ncn2)c(OC)c1
3. O=C(Nc1nc2cc(C(F)(F)F)cc(NC3CC3)n2n1)c1cccnc1
4. NC(=O)c1c(NC(=O)C2CC2)sc2c1CCCC2
5. NCC(=O)Nc1ccc(-n2nc(C(F)(F)F)cc2-c2ccc3c(ccc4ccccc43)c2)cc1
6. N#Cc1c(C2CCNCC2)cc(-c2c(O)cccc2OCC2CC2)nc1N

1. 95
2. 117
3. 108
4. 98
5. 93
6. 34

Quick one: residual activity of Cc1cc(SCc2sc(-c3ccc(C(F)(F)F)cc3)nc2C)ccc1OCC(=O)O ?
99

###

- TARGET_SYSTEM: PRKACA (human)
- EXPERIMENT_DESCRIPTION: radiometric filter-binding kinase assay
- TEST_PARAMETERS: compound 1.0 µM
Provide the reported residual activity of each item.
Numbers only, in %.

// worked examples, residual activity included
| MOLECULE | RESULT_UNITS | residual activity |
| --- | --- | --- |
| NC(=O)c1cc(-c2ccnc(NC3CCCCC3)c2)nc(N2CCNCC2)c1 | % | 109 |
| O=C(O)c1ccc(-c2c[nH]c3ncc(-c4ccccc4)cc23)cc1C1CCCC1 | % | 104 |
| O=c1c(O)c(-c2ccc(O)c(O)c2)oc2cc(O)c(O)c(O)c12 | % | 109 |
| Cc1ccc(=O)n(-c2ccccc2)c1 | % | 90 |
| Cn1c(=O)c2c(ncn2C)n(C)c1=O | % | 96 |
| CC1=C(CO)C(=O)O[C@@H]([C@@H](C)[C@H]2CC[C@H]3[C@@H]4C[C@H]5O[C@]56[C@@H](O)C=CC(=O)[C@]6(C)C4CC[C@]23C)C1 (stereo partly specified) | % | 109 |
| Cc1cc(SCc2sc(-c3ccc(C(F)(F)F)cc3)nc2C)ccc1OCC(=O)O | % | 110 |
| CN(C)C/C=C/C(=O)Nc1cccc(C(=O)Nc2ccc(Nc3nccc(-c4cccnc4)n3)cc2)c1 | % | 108 |

Please go through the list and note residual activity for each molecule.
1. Cc1cccc(-c2nn(C(=S)Nc3ccccc3)cc2-c2ccnc3ccccc23)n1
2. NCC(=O)Nc1ccc(-n2nc(C(F)(F)F)cc2-c2ccc3c(ccc4ccccc43)c2)cc1
3. N#Cc1c(C2CCNCC2)cc(-c2c(O)cccc2OCC2CC2)nc1N
4. COc1ccc(N(C(=O)Nc2c(C)cccc2C)c2cc(Nc3ccc(N4CCN(C)CC4)cc3)ncn2)c(OC)c1
5. Cc1cccc(Nc2nn(C)c3ncnc(N)c23)c1
6. Oc1ccc2ccccc2c1SSc1c(O)ccc2ccccc12

1. 99
2. 100
3. 83
4. 79
5. 106
6. 101

Please go through the list and note residual activity for each molecule.
1. COc1cc(O)c2c(c1)/C=C/C[C@H](O)[C@H](O)C(=O)/C=C\C[C@H](C)OC2=O
2. C[C@H]1CCCC(=O)CCC/C=C/c2cc(O)cc(O)c2C(=O)O1
3. CCn1c(-c2nonc2N)nc2cncc(CNC3CCNCC3)c21
4. CCCC(CCC)C(=O)O
5. O=C1Nc2nc(-c3c(O)cccc3OCC3CC3)cc(C3CCCNC3)c2CO1 (stereo unspecified)
6. CNC(=O)C1[C@H]2O[C@@](C)([C@@H]1N)n1c3ccccc3c3c4c(c5c6ccccc6n2c5c31)C(=O)NC4 (stereo partly specified)

1. 93
2. 97
3. 33
4. 82
5. 79
6. 2

Please go through the list and note residual activity for each molecule.
1. O=C1NC(=S)N[C@@H]1Cc1c[nH]c2ccccc12
2. Cn1nc(Nc2ccc(F)cc2)c2c(N)ncnc21
3. NC(=O)c1c(NC(=O)C2CC2)sc2c1CCCC2
4. O=C(Nc1ccccc1-c1cn2c(CN3CCNCC3)csc2n1)c1cnc2ccccc2n1
5. CCCCCc1ccc(/C=C/[C@H](O)[C@@H](CO)NC)cc1
6. COc1ccc(-n2ncc3cnc(Nc4cc(OC)c(OC)c(OCCCN5CCN(C)CC5)c4)nc32)cc1
7. Cc1cc(NC(=O)c2cccc(NC(=O)/C=C/CN(C)C)c2)ccc1Nc1nccc(-c2cccnc2)n1
8. O=C(NCCCNc1nc(Nc2cccc(CN3CCOCC3)c2)ncc1C1CC1)C1CCC1

1: 80; 2: 106; 3: 100; 4: 106; 5: 106; 6: 26; 7: 93; 8: 100

Please go through the list and note residual activity for each molecule.
1. CNc1nc(-c2ccc3c(N)n[nH]c3c2)cc(N2C[C@@H](C(=O)NC3CCCCC3)CC[C@H]2C)n1
2. CCc1cncnc1N1CCN(Cc2nc3cc(C(F)(F)F)ccc3[nH]2)CC1

102
83

Please go through the list and note residual activity for each molecule.
1. NC(=O)c1cc2c(-c3cccc(-c4ccccc4)c3)cnc(N)c2s1
2. NC(=O)Nc1ccc2c(c1)/C(=C/c1cc(-c3cccnc3)c[nH]1)C(=O)N2
3. C=CC(=O)N1CCC[C@@H](n2nc(-c3ccc(Oc4ccccc4)cc3)c3c(N)ncnc32)C1
4. Cc1ccc(Sc2cnc(Nc3cccc(Br)n3)s2)cc1C(=O)N1CCN(C(=O)CN)CC1
5. O=C(NOCC(O)CO)c1ccc(F)c(F)c1Nc1ccc(I)cc1Cl (stereo unspecified)
6. COc1cc(C(=O)N2CCOCC2)c(F)cc1Nc1ncc(C(F)(F)F)c(NC2CC2)n1
7. NS(=O)(=O)OC[C@@H]1C[C@@H](n2ccc3c(N[C@H]4CCc5ccccc54)ncnc32)C[C@@H]1O

1. 103
2. 66
3. 101
4. 88
5. 94
6. 102
7. 73

Please go through the list and note residual activity for each molecule.
1. NC(=O)c1ccc(-c2ccc(Oc3cncc4sc(-c5nn[nH]n5)cc34)cc2)cc1
2. O=C(N[C@@H](COc1ccc2[nH]c(=O)[nH]c2c1)c1ccccc1)c1cccn(Cc2ccc(F)c(F)c2)c1=O
3. Cc1nc(-c2ccc(OCC(C)C)c(C#N)c2)sc1C(=O)O
4. COc1ccc2c(c1)c1c3c(c4c5ccccc5n(C)c4c1n2CC(O)CN(C)C)C(=O)NC3=O (stereo unspecified)

[108, 112, 99, 7]
